System: HeLa Kyoto;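 note: synchronized HeLa Kyoto cells, proteins quantified by TMT10plex mass spectrometry, three biological replicates, mitosis taken 0.5 h after nocodazole release, G1/S directly after double thymidine block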
Assay: thermal stability score vs G1/S (z-score of summed log2 fold changes over temperatures); higher = more thermally stable than in G1/S
Details: cell cycle stage: mitosis
measure.name: thermal stability score

MSGWADERGGEGDGRIYVGNLPTDVREKDLEDLFYKYGRIREIELKNRHGLVPFAFVRFEDPRDAEDAIYGRNGYDYGQCRLRVEFPRTYGGRGGWPRGGRNGPPTRRSDFRVLVSGLPPSGSWQDLKDHMREAGDVCYADVQKDGVGMVEYLRKEDMEYALRKLDDTKFRSHEGETSYIRVYPERSTSYGYSRSRSGSRGRDSPYQSRGSPHYFSPFRPY [SRSF9]	-3.72
MSEKENNFPPLPKFIPVKPCFYQNFSDEIPVEHQVLVKRIYRLWMFYCATLGVNLIACLAWWIGGGSGTNFGLAFVWLLLFTPCGYVCWFRPVYKAFRADSSFNFMAFFFIFGAQFVLTVIQAIGFSGWGACGWLSAIGFFQYSPGAAVVMLLPAIMFSVSAAMMAIAIMKVHRIYRGAGGSFQKAQTEWNTGTWRNPPSREAQYNNFSGNSLPEYPTVPSYPGSGQWP [SCAMP4]	-2.1
